TARGET ENTITY: Metabotropic glutamate receptor 8 (Rattus norvegicus)
ASSAY TEXT: mGluR8 Gi/Go-coupled signaling modulation – cell-based, rat, thallium flux, HTS, primary screen (AID 488969)
REPORTED CONDITIONS: HEK293 rat mGluR8, GIRK thallium flux, FluoZin2; at 10 µM; stronger effect = higher value; submaximal glutamate (EC20) added with thallium
Over roughly 110,000 compounds, “z-score” has its median near -0.1; the highest 2% begin near 2. The list comes from a sample in which the highest values are over-represented; it also holds close analogues and randomly drawn compounds.
Below: a set of entries, each annotated with reported z-score.
In your answer, state the number alone without any accompanying words.

Consider the compound shown here: `Cc1nc2c(C)cccc2cc1C(=O)N/N=C/c1cccc([N+](=O)[O-])c1` What is its recorded z-score?
-0.361

`Cc1cc(C)nc(SCc2nnc(SCC(=O)Nc3nccs3)n2C)n1` , same question.
0.465

`CCCCCOc1ccc(Br)cc1/C(C)=N/NC1=NCCN1` , same question.
1.05

`O=C(C[n+]1cc(-c2ccccc2)n2c1CCC2)OCc1ccccc1` , same question.
5.17

`CCn1c(NCc2ccco2)nc2c1c(=O)n(C)c(=O)n2C` , same question.
0.397

CCOc1ccc2nc(NC(=O)C3CCCN(S(=O)(=O)c4cccs4)C3)sc2c1 (centres undefined) , same question.
0.284

====

TARGET ENTITY: Metabotropic glutamate receptor 8 (Rattus norvegicus)
ASSAY TEXT: mGluR8 Gi/Go-coupled signaling modulation – cell-based, rat, thallium flux, HTS, primary screen (AID 488969)
REPORTED CONDITIONS: HEK293 rat mGluR8, GIRK (G protein-gated inwardly rectifying potassium channel) thallium flux, FluoZin2; at 10 µM; stronger effect = higher value; submaximal glutamate (EC20) added with thallium
The full ranking holds about 110,000 compounds; the median of “z-score” is about -0.1, and the highest 2% start at about 2. Many of the other results were omitted from the sample, so the highest values are more common in it than they were.
Label Met for high-side z-score (at or above 0.3) and Not met for low-side z-score (below it).

Solved entries:
Oc1[nH]c2ccccc2c1C=NCC1CCCO1 (configuration not stated) :: Not met
CC(C)c1ccc2[nH]c(O)c(N=NC(=S)NCCc3ccccc3)c2c1 :: Met

Entry `O=C(NNC(=O)c1cccnc1SCc1cccc([N+](=O)[O-])c1)c1ccccn1` : is its z-score no less than 0.3?
Met

`Cc1ccc(C(=O)NNC(=O)c2cccnc2SCc2cccc([N+](=O)[O-])c2)cc1` , same question.
Not met

S=C(NCC1CCCO1)Nc1ccc(Cl)cc1 (configuration not stated) , same question.
Not met

COc1cccc(C(=O)NC(C)c2ccc(Br)cc2)c1 (configuration not stated) , same question.
Not met

`CCOC(=O)C(=O)N=Nc1c(O)[nH]c2ccccc12` , same question.
Not met

CCCCC1CC(CSc2ncn[nH]2)OC1=O (configuration not stated) , same question.
Not met

`O=C(NNC(=O)c1cccnc1SCc1cccc([N+](=O)[O-])c1)c1ccc(F)cc1` , same question.
Met

`O=S(=O)(/N=C(/Nc1ccc(F)c(F)c1F)c1ccccc1)c1ccccc1` , same question.
Not met

`COc1cc(C(=O)Nc2nnc(C)s2)cc(OC)c1OC` , same question.
Met

CCCCC1CC(CSC(=N)N)OC1=O (configuration not stated) , same question.
Met
